test system: NOMO1; assay: cell viability relative to DMSO control; higher = less cytotoxic; details: RPMI 5 mM glucose + 10% FBS; 48 h; 0.19 µM
observation-type: cell viability (%)
Write the value in % as a bare number.

Record `C\C1=C\C(=O)OC2=C1C=CC(=C2)O` . Reported cell viability: 122

Record COc1cc2c(cc1OC)C1CC(=O)C(CC(C)C)CN1CC2 (centres undefined) . Reported cell viability: 117

Record `CCc1cncnc1N1CCN(Cc2nc3cc(C(F)(F)F)ccc3[nH]2)CC1` . Reported cell viability: 93.4

Record `ClC1=C(N\C2=N\CCN2)C3=NSN=C3C=C1` . Reported cell viability: 118

Record `C[C@H](NC(=O)/C(C#N)=C/c1cccc(Br)n1)c1ccccc1` . Reported cell viability: 98.1

Record `CCc1cc(Nc2nccc(-c3c(-c4ccc(OC)c(C(=O)Nc5c(F)cccc5F)c4)nc4ccccn34)n2)c(OC)cc1N1CCC(N2CCN([S+](C)(=O)[O-])CC2)CC1` . Reported cell viability: 102

Record `COc1ccc(C[C@@H](C)[C@@H](C)Cc2ccc(OC)c(OC)c2)cc1OC` . Reported cell viability: 85.1

Record `OC(=O)C1=CC=C(NC2=NC3=C(C\N=C(/C4=CC(=CC=C34)Cl)C5=C(F)C=CC=C5F)C=N2)C=C1` . Reported cell viability: 79.9

Record Cc1ccccc1C(C(=O)NC1CCCCC1)N(C(=O)Cn1ccnc1C)c1cccc(F)c1 (centres undefined) . Reported cell viability: 109
